# System: Klebsiella pneumoniae
# Measurement context: Concentration 20 uM; ASSAY_TEST Inhibition of Bacterial Growth; detection method Absorption (OD600); MEDIA CAMHB; plate type 384well; NBS; CORNING #3640; time 18 hr
Measured potencies and affinities stand elsewhere.
Quantity: Inhibition

[[record]]
compound = "CN(Cc1cnc2nc(N)nc(N)c2n1)c1ccc(C(=O)N[C@@H](CCC(=O)O)C(=O)O)cc1.O"
quantity = "Inhibition"
recorded_measurement = "9.2%"

[[record]]
compound = "CC(C)OC(=O)CCC/C=C\\C[C@@H]1[C@@H](CC[C@@H](O)CCc2ccccc2)[C@H](O)C[C@@H]1O"
quantity = "Inhibition"
recorded_measurement = "18.51%"

[[record]]
compound = "Cc1nc(=O)c2cc(CN(C)c3ccc(C(=O)N[C@@H](CCC(=O)O)C(=O)O)s3)ccc2[nH]1"
quantity = "Inhibition"
recorded_measurement = "9.17%"

[[record]]
compound = "NS(=O)(=O)c1cc2c(cc1Cl)NCNS2(=O)=O [HYDROCHLOROTHIAZIDE]"
quantity = "Inhibition"
recorded_measurement = "14.61%"

[[record]]
compound = "N[C@@H](Cc1cc(I)c(Oc2cc(I)c(O)c(I)c2)c(I)c1)C(=O)O"
quantity = "Inhibition"
recorded_measurement = "0.79%"

[[record]]
compound = "Cl.NC[C@H]1CC[C@H](C(=O)Oc2ccc(CCC(=O)O)cc2)CC1 [CETRAXATE HYDROCHLORIDE]"
quantity = "Inhibition"
recorded_measurement = "11.26%"

[[record]]
compound = "CCOC(=O)C1=C(C)NC(C)=C(C(=O)OC)C1c1cccc(Cl)c1Cl (stereo unspecified)"
quantity = "Inhibition"
recorded_measurement = "7.48%"

[[record]]
compound = "Br.CN(C)CCCC1(c2ccc(F)cc2)OCc2cc(C#N)ccc21 (stereo unspecified) [CITALOPRAM HYDROBROMIDE]"
quantity = "Inhibition"
recorded_measurement = "0.36%"

[[record]]
compound = "NS(=O)(=O)c1cc2c(cc1C(F)(F)F)NC(Cc1ccccc1)NS2(=O)=O (stereo unspecified) [BENDROFLUMETHIAZIDE]"
quantity = "Inhibition"
recorded_measurement = "6.67%"

[[record]]
compound = "O=C1CN(/N=C/c2ccc(-c3ccc([N+](=O)[O-])cc3)o2)C(=O)[N-]1.[Na+] [DANTROLENE SODIUM]"
quantity = "Inhibition"
recorded_measurement = "2.98%"

[[record]]
compound = "CC[C@H](C)C(=O)O[C@H]1CCC=C2C=C[C@H](C)[C@H](CC[C@@H]3C[C@@H](O)CC(=O)O3)[C@H]21"
quantity = "Inhibition"
recorded_measurement = "5.3%"

[[record]]
compound = "CC(=O)OCC(=O)C12OC3(CCCC3)OC1CC1C3CCC4=CC(=O)C=CC4(C)C3(F)C(O)CC12C (stereo unspecified)"
quantity = "Inhibition"
recorded_measurement = "13.26%"

[[record]]
compound = "C[C@]12C[C@H](O)[C@H]3[C@@H](CCC4=CC(=O)CC[C@@]43C)[C@@H]1CC[C@@H]2C(=O)CO"
quantity = "Inhibition"
recorded_measurement = "17.2%"

[[record]]
compound = "CCCNC(C)C(=O)Nc1ccccc1C.Cl (stereo unspecified) [PRILOCAINE HYDROCHLORIDE]"
quantity = "Inhibition"
recorded_measurement = "10.6%"

[[record]]
compound = "Cl.Clc1ccccc1CN1CCc2sccc2C1 [TICLOPIDINE HYDROCHLORIDE]"
quantity = "Inhibition"
recorded_measurement = "-0.77%"

[[record]]
compound = "CN(C)CCOC(c1ccc(Cl)cc1)c1ccccn1.O=C(O)/C=C\\C(=O)O (stereo unspecified) [CARBINOXAMINE MALEATE]"
quantity = "Inhibition"
recorded_measurement = "12.89%"

